assay.explanation: gradient 5% acetonitrile 3 min, to 50% in 2 min, to 85% in 15 min, held 3 min, 100 µL/min
test.parameters: column: Zorbax Extend-C18 2.1 x 50 mm; eluents: water / acetonitrile, 0.1% formic acid
readout.type: RP-LC retention time (s)
Give bare numbers, in s.

compound	RP-LC retention time [s]
CCCCn1cc(S(=O)(=O)NCc2ccccc2F)c2cccnc21	754
CCOC(=O)c1cc(S(=O)(=O)N2CCCC2C(=O)NC(C)(C)CC)cn1C (stereo not given)	931

Each of the following entries comes with a recorded value; kindly state RP-LC retention time for each.
1. CCc1cccc(C)c1Nc1c(-c2ccccc2O)nc2ncccn12
2. O=C(CN1CC=C(c2cnn(-c3ccc(F)cc3)c2)CC1)N1CCN(c2ccccc2F)CC1

stdout:
1: 907; 2: 748

Each of the following entries comes with a recorded value; kindly state RP-LC retention time for each.
1. CCCCOc1ccc(-c2nc3ncccn3c2NC2CCCCC2)cc1
2. CCC(NC(=O)C1CCCN(c2cnc3nccnc3c2)C1)c1ccc(OC)cc1 (stereo not given)
3. Cc1ccc(N2CC(c3nc(-c4cccc(-c5ccnn5C)c4)no3)CC2=O)cc1C (stereo not given)
4. Cc1ccccc1C(=O)Nc1ccccc1NC(=O)C1CCC1
5. COc1cc(NC(=O)CN2CC(C)Sc3ccccc32)cc(OC)c1 (stereo not given)

stdout:
[957, 735, 1010, 795, 971]

====

assay.explanation: gradient 5% acetonitrile 3 min, to 50% in 2 min, to 85% in 15 min, held 3 min, 100 µL/min
test.parameters: column: Zorbax Extend-C18 2.1 x 50 mm; eluents: water / acetonitrile, 0.1% formic acid
readout.type: RP-LC retention time
Remember to put the unit after the number in your answer.

Worked cases, RP-LC retention time given:
molecule	RP-LC retention time
CN1c2ccccc2C(=O)N2CCc3c([nH]c4ccccc34)C21 (stereo not given)	890 s
COCCN1CCCc2ccc(NC(=O)c3cccc(Br)c3)cc21	993 s

Each of the following entries comes with a recorded value; kindly state RP-LC retention time for each.
1. COc1cccc(CCC(=O)NC(C)C(=O)Nc2nc3ccccc3[nH]2)c1 (stereo not given)
2. Cc1cccc(Nc2c(-c3ccc(N(C)C)cc3)nc3ncccn23)c1
3. Cc1noc2nc(C)n(CC(=O)NCc3ccccc3)c(=O)c12

stdout:
1. 660 s
2. 745 s
3. 716 s

====

assay.explanation: gradient 5% acetonitrile 3 min, to 50% in 2 min, to 85% in 15 min, held 3 min, 100 µL/min
test.parameters: column: Zorbax Extend-C18 2.1 x 50 mm; eluents: water / acetonitrile, 0.1% formic acid
readout.type: RP-LC retention time (s)
Numbers only, in s.

Worked cases, RP-LC retention time given:
compound	RP-LC retention time [s]
Cc1nnc(-c2cc(NC(=O)c3ccc(C(F)(F)F)cc3)c(C)s2)o1	986
Cc1ccc(CNC(=O)C2CCN(S(=O)(=O)c3cc(-c4noc(C5CC5)n4)sc3C)CC2)o1	1010
CSc1ccccc1NS(=O)(=O)c1cc2c(s1)CCN(C(=O)C1CC1)C2	851
CC(C)c1nc2c(c(=O)n1CC(=O)NCc1cccs1)CN(Cc1ccccc1)CC2	650
CCc1nnc2ccc(NC(=O)Nc3ccccc3C)cn12	691

Each of the following entries comes with a recorded value; kindly state RP-LC retention time for each.
1. Cc1ccc(CNC(=O)C2CCN(S(=O)(=O)c3cn(C(C)C)cn3)CC2)cc1
2. CCc1ccc(S(=O)(=O)NCCc2cn(C)c3ncccc23)cc1
3. CC(=O)c1ccc(NC(=O)Cn2nc3c(N(C)C4CCCCC4)nccn3c2=O)cc1
4. Cc1cccc(-c2nc(Cn3nnc(-c4nc(-c5ccccc5Cl)no4)c3C)c(C)o2)c1

stdout:
1. 745
2. 786
3. 705
4. 908
